System: Escherichia coli TOP10
test protocol: shrunken log2 fold change of peptide-encoding DNA abundance (4.5 h post-induction vs induction); higher = less antimicrobial activity (less host growth inhibition)
run parameters: time post-induction: 4.5 h; library: site-saturation at positions 5, 18, 19, 20
Parameter threshold = -0.08. Response is condition met when shrunken log2 fold change meets or exceeds it, else condition not met.

RRIRERPPRLPRPRPRPKHDPRP :: condition not met
RRIRFRPPRLPRPRPRPKHLPRP :: condition met
RRIRNRPPRLPRPRPRPHMPPRP :: condition met
RRIRPRPPRLPRPRPRPYEAPRP :: condition not met
RRIRCRPPRLPRPRPRPQFAPRP :: condition not met
RRIRTRPPRLPRPRPRPWWNPRP :: condition not met
RRIRDRPPRLPRPRPRPLGMPRP :: condition met
RRIRHRPPRLPRPRPRPRHAPRP :: condition met

###

Listed below: shrunken log2 fold change values for each entry.
System: Escherichia coli TOP10
test protocol: shrunken log2 fold change of peptide-encoding DNA abundance (4.5 h post-induction vs induction); higher = less antimicrobial activity (less host growth inhibition)
run parameters: time post-induction: 4.5 h; library: site-saturation at positions 5, 18, 19, 20
measured attribute: shrunken log2 fold change

RRIRCRPPRLPRPRPRPYHQPRP :: -0.819
RRIRDRPPRLPRPRPRPGHCPRP :: -0.0141
RRIRGRPPRLPRPRPRPFRAPRP :: 0.209
RRIRWRPPRLPRPRPRPKRCPRP :: 0.0577
RRIRLRPPRLPRPRPRPQNDPRP :: -0.271
RRIRSRPPRLPRPRPRPFNEPRP :: -0.19
RRIRERPPRLPRPRPRPRYWPRP :: 0.185
RRIRFRPPRLPRPRPRPGMIPRP :: -0.224
RRIRDRPPRLPRPRPRPQNGPRP :: -0.0018
RRIRQRPPRLPRPRPRPPSCPRP :: 0.348
RRIRNRPPRLPRPRPRPQKGPRP :: 0.0289
RRIRRRPPRLPRPRPRPWRKPRP :: 0.302
RRIRTRPPRLPRPRPRPEDRPRP :: 0.0062
RRIRIRPPRLPRPRPRPMCTPRP :: -0.0274
RRIRRRPPRLPRPRPRPMMVPRP :: -0.00292

###

System: Escherichia coli TOP10;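 further: peptides expressed intracellularly from a pBAD plasmid library in pooled LB shake-flask culture, induced with 0.3% L-arabinose, DNA abundance read by NGS, three biological replicates, DESeq2 with apeglm shrinkage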
test protocol: shrunken log2 fold change of peptide-encoding DNA abundance (4.5 h post-induction vs induction); higher = less antimicrobial activity (less host growth inhibition)
run parameters: time post-induction: 4.5 h; library: site-saturation at positions 5, 18, 19, 20
measured attribute: shrunken log2 fold change

RRIRIRPPRLPRPRPRPANLPRP :: -0.584
RRIRLRPPRLPRPRPRPVQIPRP :: 0.364
RRIRWRPPRLPRPRPRPELWPRP :: 0.729
RRIRFRPPRLPRPRPRPRGVPRP :: 0.0819
RRIRPRPPRLPRPRPRPRIQPRP :: 0.389
RRIRGRPPRLPRPRPRPLSEPRP :: 0.52
RRIRCRPPRLPRPRPRPCYSPRP :: -0.379
RRIRHRPPRLPRPRPRPIAKPRP :: 0.05
RRIRERPPRLPRPRPRPHHWPRP :: -0.315
RRIRGRPPRLPRPRPRPMHSPRP :: 0.668
RRIRNRPPRLPRPRPRPPYLPRP :: -0.269
RRIRMRPPRLPRPRPRPAARPRP :: 0.975
RRIRPRPPRLPRPRPRPQPRPRP :: 0.603
RRIRERPPRLPRPRPRPVGHPRP :: -0.000999
RRIRYRPPRLPRPRPRPIIRPRP :: -0.2
RRIRCRPPRLPRPRPRPDTKPRP :: -0.158
RRIRPRPPRLPRPRPRPEHEPRP :: 0.0185
RRIRWRPPRLPRPRPRPTNWPRP :: 0.206
RRIRARPPRLPRPRPRPYQHPRP :: -0.272
RRIRFRPPRLPRPRPRPVKYPRP :: -0.147
RRIRFRPPRLPRPRPRPWGWPRP :: 0.346
RRIRVRPPRLPRPRPRPCADPRP :: -0.101
RRIRHRPPRLPRPRPRPFMSPRP :: -0.301
RRIRGRPPRLPRPRPRPMRIPRP :: 2.34
RRIRCRPPRLPRPRPRPQPVPRP :: 0.399
RRIRGRPPRLPRPRPRPKRPPRP :: 0.969
RRIRLRPPRLPRPRPRPWIMPRP :: -0.224
RRIRFRPPRLPRPRPRPTCQPRP :: -0.0887
RRIRERPPRLPRPRPRPRIMPRP :: -0.712
RRIRWRPPRLPRPRPRPVKEPRP :: -0.0992
RRIRPRPPRLPRPRPRPEQGPRP :: -0.178
RRIRYRPPRLPRPRPRPEDRPRP :: 0.119
RRIRSRPPRLPRPRPRPCDGPRP :: 0.0333
RRIRHRPPRLPRPRPRPFREPRP :: -0.0591
RRIRDRPPRLPRPRPRPECTPRP :: 1.05
RRIRRRPPRLPRPRPRPYKMPRP :: 0.187
RRIRCRPPRLPRPRPRPFGSPRP :: -0.078
RRIRWRPPRLPRPRPRPTMRPRP :: 0.925
RRIRKRPPRLPRPRPRPQQGPRP :: 0.23
RRIRCRPPRLPRPRPRPYQRPRP :: 0.055
RRIRMRPPRLPRPRPRPDMHPRP :: 1.15
RRIRCRPPRLPRPRPRPYASPRP :: -0.0843
RRIRFRPPRLPRPRPRPLQEPRP :: -0.203
RRIRVRPPRLPRPRPRPYDTPRP :: 1.6
RRIRIRPPRLPRPRPRPHPNPRP :: -0.404
RRIRYRPPRLPRPRPRPQFKPRP :: -0.134
RRIRDRPPRLPRPRPRPEYFPRP :: 0.0472
RRIRRRPPRLPRPRPRPRKEPRP :: 0.4
RRIRWRPPRLPRPRPRPPHKPRP :: 0.339
RRIRMRPPRLPRPRPRPKALPRP :: 0.025
RRIRMRPPRLPRPRPRPKFCPRP :: 0.0393
RRIRMRPPRLPRPRPRPCCTPRP :: -0.229
RRIRTRPPRLPRPRPRPGPPPRP :: 0.404
RRIRVRPPRLPRPRPRPILGPRP :: 0.0313
RRIRFRPPRLPRPRPRPAADPRP :: 0.0709
RRIRARPPRLPRPRPRPGELPRP :: 0.333
RRIRTRPPRLPRPRPRPPVVPRP :: -0.0715
RRIRLRPPRLPRPRPRPENHPRP :: -0.126
RRIRVRPPRLPRPRPRPYSYPRP :: 0.128
RRIRGRPPRLPRPRPRPVGVPRP :: 1.08
RRIRWRPPRLPRPRPRPHSSPRP :: -0.0864
RRIRLRPPRLPRPRPRPRWVPRP :: 0.237
RRIRYRPPRLPRPRPRPDYFPRP :: -0.22
